system tested: T1, human CD4 on cells (SKW3 cells; human PBMCs) (human, UniProt P01730 26-458)
T1 construct: whole, on cells; The SKW3 CD4 knockout cells served as the negative cell line; also called hCD4
test description: FACS binning on SKW3 cells after supernatant; competitor RPA-T4-PE-Dazzle 594; background 783, max binding 15000
Label t when RPA-T4-PE-Dazzle 594 signal (FACS binning) is at or above 3000; anything below gets f.

{"columns": ["binder", "class name"],
 "data": [
  ["75110_10N21A (antibody, V domains shown, Tested as non-clonal hybridoma supernatant from AlivaMab Mouse Kappa mice, detected with anti-mouse Fc and anti-human Kappa) VH: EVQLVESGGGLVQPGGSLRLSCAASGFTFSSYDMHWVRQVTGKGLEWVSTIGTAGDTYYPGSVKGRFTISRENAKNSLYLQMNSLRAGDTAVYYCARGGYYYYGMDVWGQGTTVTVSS VL: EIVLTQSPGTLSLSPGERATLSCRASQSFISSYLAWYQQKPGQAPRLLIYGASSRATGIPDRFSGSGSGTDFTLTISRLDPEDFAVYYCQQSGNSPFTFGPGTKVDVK", "t"],
  ["75110_01H18A (antibody, V domains shown, Tested as non-clonal hybridoma supernatant from AlivaMab Mouse Kappa mice, detected with anti-mouse Fc and anti-human Kappa) VH: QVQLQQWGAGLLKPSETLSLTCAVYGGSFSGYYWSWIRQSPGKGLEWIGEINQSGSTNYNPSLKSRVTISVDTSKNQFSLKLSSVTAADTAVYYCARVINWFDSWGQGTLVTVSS VL: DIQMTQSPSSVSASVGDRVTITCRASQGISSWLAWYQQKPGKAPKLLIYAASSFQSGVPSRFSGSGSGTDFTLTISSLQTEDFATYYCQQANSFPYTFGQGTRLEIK", "f"],
  ["75110_10K21A (antibody, V domains shown, Tested as non-clonal hybridoma supernatant from AlivaMab Mouse Kappa mice, detected with anti-mouse Fc and anti-human Kappa) VH: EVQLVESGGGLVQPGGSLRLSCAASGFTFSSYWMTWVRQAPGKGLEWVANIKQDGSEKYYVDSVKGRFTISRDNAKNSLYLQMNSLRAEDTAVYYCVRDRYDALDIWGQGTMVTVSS VL: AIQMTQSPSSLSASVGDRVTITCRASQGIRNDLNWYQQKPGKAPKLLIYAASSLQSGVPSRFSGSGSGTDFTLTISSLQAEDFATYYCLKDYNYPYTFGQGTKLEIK", "f"],
  ["75110_08H06A (antibody, V domains shown, Tested as non-clonal hybridoma supernatant from AlivaMab Mouse Kappa mice, detected with anti-mouse Fc and anti-human Kappa) VH: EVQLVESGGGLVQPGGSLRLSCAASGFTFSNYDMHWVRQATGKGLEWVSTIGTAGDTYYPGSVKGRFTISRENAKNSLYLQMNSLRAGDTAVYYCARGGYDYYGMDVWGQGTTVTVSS VL: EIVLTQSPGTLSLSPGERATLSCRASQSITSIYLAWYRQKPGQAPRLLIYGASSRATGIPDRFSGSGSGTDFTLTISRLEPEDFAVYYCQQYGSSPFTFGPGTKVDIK", "f"]
]}
